Listing of IC50 toward Ubiquitin carboxyl-terminal hydrolase 7 (Homo sapiens, UniProt Q93009), each taken from a published source.

compound="C[C@H](O)Cc1cc2c(-c3cc(Cl)cc4c3OC(C(=O)N3CCNCC3)C4)ccnc2[nH]1 (some centres unmarked)" endpointlabel=IC50 valuemeasured="1 to 10 µM"
compound="Cc1cc(-c2cc(Cl)cc3c2OC(C(=O)N2CCNCC2)C3)ccn1 (centres unmarked)" endpointlabel=IC50 valuemeasured="10 to 30 µM"

Ask | Item: CCC(O)c1cc2ncnc(-c3cc(Cl)cc4c3O[C@@H](c3ocnc3CNCC(F)(F)F)C4)c2s1 (some centres unmarked) Test system: Ubiquitin carboxyl-terminal hydrolase 7 (Homo sapiens, UniProt Q93009) Read-out: IC50 Value: ?
Reply | 10 to 30 µM

Ask | API: value(readout=IC50, system=Ubiquitin carboxyl-terminal hydrolase 7 (Homo sapiens, UniProt Q93009)) for record O=C1CCC(=O)N1Cc1cc2nccc(-c3cc(Cl)cc4c3O[C@@H](c3onc5c3CC(N3CCC3)CC5)C4)c2s1 (some centres unmarked)
Reply | < 1 µM

Ask | Enter reported IC50 observed with Ubiquitin carboxyl-terminal hydrolase 7 (Homo sapiens, UniProt Q93009) for Cc1cc(-c2n[nH]c3c2CN(C#N)C3)ccc1N1CCN(C)CC1
Reply | < 10 µM

Ask | Any idea what IC50 came out for O=C(C1Cc2cc(Cl)cc(-c3ccnc4[nH]ccc34)c2O1)N1CCN(c2ccncn2)CC1 (centres unmarked) on Ubiquitin carboxyl-terminal hydrolase 7 (Homo sapiens, UniProt Q93009)?
Reply | 1 to 10 µM

Ask | Form field: IC50 recorded for C[C@H]1CCN(Cc2cc3nccc(-c4cc(Cl)cc5c4O[C@@H](C(=O)N4CCNCC4)C5)c3s2)C1=O with Ubiquitin carboxyl-terminal hydrolase 7 (Homo sapiens, UniProt Q93009) (enter value)
Reply | < 1 µM

Ask | Give Ubiquitin carboxyl-terminal hydrolase 7 (Homo sapiens, UniProt Q93009) IC50 for NC(=O)c1cc(-c2ccnc3cc(Cn4c(=O)ccn(CC(F)(F)F)c4=O)sc23)c2c(c1)[C@@H]1C[C@@H]1CN2[C@@H]1CNC2(CCC2)C1
Reply | < 0.01 µM

----------
Reported IC50 on UniProt:Q93009 for assorted compounds, compiled from publications.

Look over these answered cases.
compound=O=C1CCC(=O)N1Cc1cc2nccc(-c3cc(Cl)cc4c3N(C3CN(CC(F)F)C3)CCC4)c2s1 endpointlabel=IC50 valuemeasured="101 to 1000 nM"
compound=O=C1CCC(=O)N1Cc1cc2nccc(-c3cc(Cl)cc4c3N(C3CNC3)CCC43CC3)c2s1 endpointlabel=IC50 valuemeasured="10 to 100 nM"
compound=COCCn1ccc(=O)n(Cc2cc3nccc(-c4cc(Cl)cc5c4N(C4CNC4)CCC5)c3s2)c1=O endpointlabel=IC50 valuemeasured="< 10 nM"

Ask | Tell me reported IC50 for CC1(C)CNCC(Cc2c(Cl)cc(Cl)cc2-c2ccnc3cc(CN4C(=O)C5CC5C4=O)sc23)O1 (centres unmarked) , tested with UniProt:Q93009.
Reply | < 10 nM

Ask | Lab request: please report IC50 under test system UniProt:Q93009 for Nc1ccc2ncn(CC3(O)CCN(C(=O)CCc4ccccc4)CC3)c(=O)c2c1
Reply | > 10000 nM

Ask | # returns recorded IC50 (system: UniProt:Q93009) for Cc1cc(Cl)cc(-c2ncnc3cc(CN4C(=O)CN(C)C4=O)sc23)c1CC1CNCC(C)(C)O1 (centres unmarked)
Reply | < 10 nM

Ask | Param readout = IC50; param system = UniProt:Q93009; param query = Cc1cc(Cl)cc(-c2ncnc3cc(CN4C(=O)C5CC5C4=O)sc23)c1CC1CNCC2(CC2)O1 (centres unmarked) ; response: value
Reply | < 10 nM

Ask | Provide the documented IC50 with UniProt:Q93009 as the system for N#CN1Cc2c(Nc3cc4ccccc4cn3)nn(Cc3ccccc3)c2C1
Reply | < 10000 nM
